Measurement Target: KRAS4B G13D (Homo sapiens, UniProt P01116, G13D)
Construct: HiBit; expressed in transfected cells; host or cells: GP5d cells (ECACC 95090715), stably transduced with lentivirus, CMV promoter
Sequence (P01116 1-188 isoform P01116-2 G13D): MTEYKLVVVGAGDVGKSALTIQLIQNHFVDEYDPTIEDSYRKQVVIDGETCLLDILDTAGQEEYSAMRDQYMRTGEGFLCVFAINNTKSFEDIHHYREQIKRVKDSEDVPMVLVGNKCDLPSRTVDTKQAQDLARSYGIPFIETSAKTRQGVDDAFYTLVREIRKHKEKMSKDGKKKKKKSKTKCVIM
Procedure Text: HiBit KRAS4B mutant spectrum degradation assay, KRAS4B G13D in GP5d cells (18 h)
Type: cell-based
Assay Context: KRAS mutation G13D
Metric: Dmax at 18 h (% Ctrl.)

{"columns": ["Compound", "Measurement Target", "Readout Unit", "Experimental Value"],
 "data": [
  ["Cc1ncsc1-c1ccc([C@@H](NC(=O)[C@@H]2C[C@@H](O)CN2C(=O)[C@H](C(C)C)n2cc(OCCCCN3CCCN(c4nccc(-c5noc([C@@]6(C)CCCc7sc(N)c(C#N)c76)n5)n4)[C@@H](C)C3)nn2)[C@H](C)O)cc1 (single isomer, unassigned)", "KRAS4B G13D (Homo sapiens, UniProt P01116, G13D)", "% Ctrl.", 89.7],
  ["Cc1ncsc1-c1ccc([C@H](CO)NC(=O)[C@@H]2C[C@@H](O)CN2C(=O)[C@H](C(C)C)n2cc(OC(C)CCCN3CCCN(c4nccc(-c5noc([C@@]6(C)CCCc7sc(N)c(C#N)c76)n5)n4)[C@@H](C)C3)nn2)cc1 (stereo partly shown)", "KRAS4B G13D (Homo sapiens, UniProt P01116, G13D)", "% Ctrl.", 89.7],
  ["Cc1ncsc1-c1ccc(CNC(=O)[C@@H]2C[C@@H](O)CN2C(=O)[C@@H](c2cc(OCCCN3CCCN(c4nccc(-c5noc([C@@]6(C)CCCc7sc(N)c(C#N)c76)n5)n4)[C@@H](C)C3)no2)C(C)C)cc1 (single isomer, unassigned)", "KRAS4B G13D (Homo sapiens, UniProt P01116, G13D)", "% Ctrl.", 94],
  ["Cc1ncsc1-c1ccc(CNC(=O)[C@@H]2C[C@@H](O)CN2C(=O)[C@@H](c2cc(OCCCCN3CCCN(c4nccc(-c5noc([C@@]6(C)CCCc7sc(N)c(C#N)c76)n5)n4)[C@@H](C)C3)no2)C(C)C)cc1 (single isomer, unassigned)", "KRAS4B G13D (Homo sapiens, UniProt P01116, G13D)", "% Ctrl.", 93]
]}

###

Measurement Target: KRAS(G12D) (Homo sapiens, UniProt P01116, G12D)
Construct: introduced immediately downstream of the initiating Methionine codon of the endogenous KRAS locus; host or cells: GP5d-HiBit-KRAS(G12D), a CRISPR knock-in at the endogenous locus
Sequence (P01116 1-188 isoform P01116-2 G12D): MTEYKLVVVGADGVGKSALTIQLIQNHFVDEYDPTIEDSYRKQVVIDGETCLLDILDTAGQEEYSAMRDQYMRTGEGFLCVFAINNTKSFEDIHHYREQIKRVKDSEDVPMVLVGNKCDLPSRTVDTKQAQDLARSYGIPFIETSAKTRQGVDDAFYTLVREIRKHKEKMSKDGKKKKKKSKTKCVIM
Procedure Text: HiBit degradation assay in GP5d-HiBit-KRAS(G12D) cells (18 h; DC50, Dmax)
Format: cell-based
Metric: DC50 (µM)

{"columns": ["Compound", "DC50 / µM"],
 "data": [
  ["Cc1ncsc1-c1ccc(CNC(=O)[C@@H]2C[C@@H](O)CN2C(=O)C(c2cc(OCCCCN3CCCN(c4nccc(-c5cc([C@@]6(C)CCCc7sc(N)c(C#N)c76)no5)n4)[C@@H](C)C3)no2)C(C)C)cc1 (stereo partly drawn)", 0.0089]
]}

I: Cc1ncsc1-c1ccc(CNC(=O)[C@@H]2C[C@@H](O)CN2C(=O)[C@@H](NC(=O)COCCCN2CCCN(c3nccc(-c4noc([C@@]5(C)CCCc6sc(N)c(C#N)c65)n4)n3)[C@@H](C)C2)C(C)(C)C)cc1
II: Cc1ncsc1-c1ccc(CNC(=O)[C@@H]2C[C@@H](O)CN2C(=O)[C@@H](NC(=O)CCCCCN2CCCN(c3nccc(-c4noc([C@@]5(C)CCCc6sc(N)c(C#N)c65)n4)n3)[C@@H](C)C2)C(C)(C)C)cc1
IN: Compare DC50: is it lower for I or for II ? Refer to your chosen item by its label in the answer.
OUT: II

# credit: patent US20250145608A1
